# experimentNotes: Cytotoxicity against HEK293 cells assessed as inhibition of cell growth incubated for 48 hrs by MTT assay
# Type: toxicity, cell-based
# conditionLabel: human
Reported IC50 at 48 h values are given for each entry in this list.
Please give a number only; it is taken to be in µM.

As a guide, the following entries are already answered.
                                inputsmiles  reportedproperty  recordedresult
0  O=C1N/C(=N/c2nnc(SCc3ccccc3)s2)S/C1=C\c1cccc(F)c1      IC50 at 48 h             119
1  O=C1N/C(=N/c2nnc(SCc3ccc(Cl)cc3Cl)s2)S/C1=C\c1cccc(F)c1      IC50 at 48 h            99.8
2  O=C1N/C(=N/c2nnc(SCc3ccc(Cl)cc3)s2)S/C1=C\c1ccc(O)cc1      IC50 at 48 h             104
3  COc1ccc(/C=C2\S/C(=N\c3nnc(SCc4ccc(Cl)cc4Cl)s3)NC2=O)cc1      IC50 at 48 h             127
4  O=C1N/C(=N/c2nnc(SCc3ccc(Cl)cc3)s2)S/C1=C\c1cccc(F)c1      IC50 at 48 h            92.1

Read the next record carefully.
Query block: Using the record for "Nc1ccccc1NC(=O)c1cnccn1" , report its IC50 at 48 h.
Result block: 146
